Data credit: patent US20140357655A1

- Target entity: human GnRH receptor (Homo sapiens)
- Sequence (P30968 whole entry): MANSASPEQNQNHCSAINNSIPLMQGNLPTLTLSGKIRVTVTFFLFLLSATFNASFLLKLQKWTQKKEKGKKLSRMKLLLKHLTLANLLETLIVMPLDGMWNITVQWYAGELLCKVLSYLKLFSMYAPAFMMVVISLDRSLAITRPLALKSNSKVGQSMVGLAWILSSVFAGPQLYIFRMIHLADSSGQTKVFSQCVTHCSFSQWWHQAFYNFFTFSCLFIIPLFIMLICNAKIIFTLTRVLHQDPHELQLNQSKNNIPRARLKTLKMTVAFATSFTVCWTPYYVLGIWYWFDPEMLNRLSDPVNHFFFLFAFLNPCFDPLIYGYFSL
- Procedure summary: IP-One HTRF assay with buserelin (at EC80) stimulation
- Test parameters: CHO cells stably expressing human GnRH receptor, read-out: Potency in IP-One HTRF assay, given as IC50
Property label: IC50 (nM)
Give bare numbers, in nM.

// below: answered compounds
In: # returns recorded IC50 (system: human GnRH receptor (Homo sapiens)) for O=C(NCc1ccccc1Cl)c1ccc2c(c1)C1(CCS(=O)(=O)CC1)C(C1CC1)N2S(=O)(=O)c1cccc(OC(F)F)c1 (stereo not drawn) [Example 86]
Out: 196

In: # returns recorded IC50 (system: human GnRH receptor (Homo sapiens)) for COc1cccc(S(=O)(=O)N2c3ccc(C(=O)Nc4cccc(S(=O)(=O)N=C(N(C)C)N(C)C)c4)cc3C3(CCS(=O)(=O)CC3)C2C2CC2)c1 (stereo not drawn) [Example 62]
Out: 9.8

Okay, next one:
In: # returns recorded IC50 (system: human GnRH receptor (Homo sapiens)) for NC(=O)c1ccc(S(=O)(=O)N2c3ccc(C(=O)NCc4ccccc4Cl)cc3C3(CCS(=O)(=O)CC3)C2C2CC2)cc1 (stereo not drawn) [Example 94]
Out: 222

----------
- Target entity: human GnRH receptor (Homo sapiens)
- Procedure summary: IP-One HTRF assay with buserelin (at EC80) stimulation
- Test parameters: CHO cells stably expressing human GnRH receptor, read-out: Potency in IP-One HTRF assay, given as IC50
Property label: IC50 (µM)
Numbers only, in µM.

Report IC50 for each item below.
1. COc1cccc(S(=O)(=O)N2c3ccc(C(=O)NCc4ccc(F)cc4Cl)cc3C3(CCS(=O)(=O)CC3)C2C2CC2)c1 (stereo not drawn) [Example 46]
2. O=C(NCC1CCCCC1)c1ccc2c(c1)C1(CCS(=O)(=O)CC1)C(C1CC1)N2S(=O)(=O)c1ccc(F)cc1 (single isomer, unassigned) [Example 36.2]
3. O=C(NCc1ccc(F)cc1Cl)c1ccc2c(c1)C1(CCS(=O)(=O)CC1)C(C1CC1)N2S(=O)(=O)c1ccc(F)cc1 (stereo not drawn) [Example 16]
4. O=C(O)c1cccc(NC(=O)c2ccc3c(c2)C2(CCS(=O)(=O)CC2)C(C2CC2)N3S(=O)(=O)c2cccc(OC(F)F)c2)c1 (single isomer, unassigned) [Example 90.1]

Out:
[0.081, 3.89, 0.074, 0.041]

Report IC50 for each item below.
1. COc1cccc(S(=O)(=O)N2c3ccc(C(=O)NCc4ncccc4C(F)(F)F)cc3C3(CCS(=O)(=O)CC3)C2C2CC2)c1 (stereo not drawn) [Example 39]
2. CS(=O)(=O)c1cccc(NC(=O)c2ccc3c(c2)C2(CCS(=O)(=O)CC2)C(C2CC2)N3S(=O)(=O)c2ccc(F)cc2)c1 (stereo not drawn) [Example 23]
3. N#Cc1cccc(S(=O)(=O)N2c3ccc(C(=O)NCc4ccccc4Cl)cc3C3(CCS(=O)(=O)CC3)C2C2CC2)c1 (single isomer, unassigned) [Example 76.2]
4. CC1N(S(=O)(=O)c2ccc(F)cc2)c2ccc(C(=O)NCc3ncccc3Cl)cc2C12CCS(=O)(=O)CC2 (stereo not drawn) [Example 26]
5. CC1N(S(=O)(=O)c2ccc(F)cc2)c2ccc(C(=O)NCc3ncccc3Cl)cc2C12CCOCC2 (single isomer, unassigned) [Example 1.2]

Out:
[0.053, 0.328, 0.689, 0.646, 19.5]

In: Sample N#Cc1ccc(S(=O)(=O)N2c3ccc(C(=O)NCc4ccccc4C(F)(F)F)cc3C3(CCS(=O)(=O)CC3)C2C2CC2)cc1 (single isomer, unassigned) [Example 72.1] — what was its IC50?
Out: 0.011
